Source of measurements: paper PMC7198493

- experimentalTarget: olfactory marker protein (OMP) (Mus musculus, UniProt Q64288)
- Construct: Rluc-OMP fusion, wild type
- Sequence (Q64288 2-163): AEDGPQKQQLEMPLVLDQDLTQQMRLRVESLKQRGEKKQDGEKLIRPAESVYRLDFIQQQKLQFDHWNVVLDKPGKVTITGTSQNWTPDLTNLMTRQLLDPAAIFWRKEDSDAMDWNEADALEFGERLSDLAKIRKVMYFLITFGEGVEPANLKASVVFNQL
- measurementProtocol: competitive BRET displacement of 8NBD-cAMP from Rluc-OMP in HEK293T lysate
measuredAttribute: IC50 (µM)
Reply numerically in µM, unit not repeated.

Prompt: Which IC50 is listed for `Nc1nc2c(ncn2[C@@H]2O[C@@H]3COP(=O)(O)O[C@H]3[C@H]2O)c(=O)[nH]1` ?
Completion: 11

###

- experimentalTarget: olfactory marker protein (OMP) (Mus musculus)
- Construct: Rluc-OMP fusion, wild type
- measurementProtocol: BRET from Rluc-OMP to fluorescent 8NBD-cAMP, dose-response (EC50 taken as apparent Kd)
measuredAttribute: Kd

Prompt: Can you look up the measured Kd of Nc1ncnc2c1nc(SCCNc1ccc([N+](=O)[O-])c3nonc13)n2[C@@H]1O[C@@H]2COP(=O)(O)O[C@H]2[C@H]1O [8NBD-cAMP] for me?
Completion: ~1900 nM
